Reference source: a melting point compilation (Tetko et al.; mined from patent text by program, amines drawn as free bases though some values may be those of a salt)

Let's look at some compounds and their measured melting point.
experimentalEndpoint: melting point

O=C(Nc1c(Cl)cncc1Cl)c1ccc(OCC2CC2)c2oc3ccccc3c12
242 °C
Cc1cn2c(=O)c(C(=O)O)cnc2c2cc(N)ccc12
> 300 °C
COCCCn1cc(Br)c2c3c(c(-c4ccccc4Cl)cc21)C(=O)NC3=O
149 to 151 °C
O=C(O)c1ccc(COCc2csc3nc(C(=O)NCc4ccc(F)c(Cl)c4)[nH]c(=O)c23)cc1
228 to 230 °C
CCc1ccc2[nH]c(C(=O)OC)cc2c1
112 °C
Cc1ccccc1-c1nc(N)ncc1-c1ccc(=O)n(C)n1
229 °C
O=C(Nc1ccc(F)cc1F)NN1CC=CCC1
136 to 137 °C
COc1cc(-c2ccc3cnc(Nc4ccc(C5CCN(CC(N)=O)CC5)cc4)nn23)c(OC)nn1
249 to 251 °C
OCc1cccc(/C=C/c2ccccc2)c1
87 to 88 °C
CCCNCCC(=O)Nc1ccc2c(c1)C(=O)c1cc(NC(=O)CCNCCC)ccc1C2=O
170 °C
COc1cc(C2CCN(C[C@H](O)C(F)(F)F)CC2)ccc1Nc1ncc2ccc(-c3ccccc3OC)n2n1
77 to 94 °C
CCOC(=O)C1=C(C(C)C)Nc2n[nH]cc2C1c1ccccc1[N+](=O)[O-] (configuration not stated)
205 to 206 °C
COc1cccc(C(=O)O)c1OC(C)=O
139 to 140 °C
CC(CCc1ccccc1)N(C)C1CCC(c2ccc(OCc3ccccc3)cc2)CC1 (racemic)
54.5 to 55.5 °C
O=C(O)C12CCCCC1CSc1ccccc12 (configuration not stated)
200 to 203 °C
CC(C)[Si](Oc1ccc2c(=O)c(N3CCC(O)(c4ccccc4)CC3)coc2c1)(C(C)C)C(C)C
163 to 164 °C
CCCc1nn(C)c2c(=O)[nH]c(-c3cc(/C=C/C(=O)N(C)C)ccc3OCC)nc12
219 to 221 °C
Clc1ccc(N(Cc2ccccc2)c2ccccc2)cc1
94 to 95 °C
CS(=O)(=O)OCCOc1ccccc1OCc1ccccc1
98 to 100 °C
O=C(O)CC1CCC2CC(=O)NC12 (configuration not stated)
186 to 189 °C
CC#CCOc1cc(N(C)c2ccccc2)ncn1
57.6 °C
N#CC(C(=O)c1ccc(Cl)cc1)=C1CCCN1C(=O)c1ccc(Cl)cc1
218 °C
Cc1oc(-c2ccccc2)nc1Cc1cc2cc(N)ccc2o1
162 °C
CC1CC(=O)NN=C1c1ccc(NC(=O)C(C)(C)C#N)cc1 (configuration not stated)
225 to 227 °C
CN1C(=O)OC(C)(C)c2cc(-c3cccc(Br)c3)ccc21
142 to 143 °C
Cc1ccc(CC(=O)NCc2cccc3c2C(=O)N(C2CCC(=O)NC2=O)C3=O)cc1F (configuration not stated)
148 to 150 °C
NCC1CCN(CC(=O)Nc2cccc3c2C(=O)c2c-3n[nH]c2-c2ccc(N3CCOCC3)cc2)CC1
240 °C
CN(C)NC(=O)c1nc([N+](=O)[O-])cn1C
154 °C
SCc1cn2ccccc2n1
168 to 178 °C
O=C1CNCCN1CCc1ccccc1
75 to 78 °C
Cn1c(COc2ccc(CC3SC(=O)NC3=O)cc2)nc2ccc(Oc3ccc4cccc(NC(=O)Nc5ccc(F)cc5F)c4c3)cc21 (configuration not stated)
222 to 224 °C
CCCCNC(=O)NS(=O)(=O)c1c(SC)cccc1SC
151 to 154 °C
CN1CCC(c2c[nH]c3ccc(C(=O)c4ccccc4)cc23)CC1
101 °C
O=C(c1ccoc1)N1CCC(O)(C#Cc2cccc(Cl)c2)CC1
93 to 94 °C
Cc1cc(C)cc(S(=O)(=O)c2cccc(N)c2C#N)c1
208 to 209 °C
CC(O)c1c(-c2ccc(F)cc2)cc2c3c1ccn3C(=O)CNC2 (configuration not stated)
220 to 222 °C
CC(C)(C)C=NNC(=O)OCc1ccccc1
74 to 74.5 °C
O=C1CCC(C(=O)c2ccccc2)N1 (configuration not stated)
175 °C
COCCOc1cc2ncnc(NC3=CC(=O)C(Oc4cccnc4)=CC3=O)c2cc1OC
189 to 190 °C
c1ccc(-n2ncnc2-c2ccncc2)cc1
92 to 94 °C
O=C1Nc2ccc(Br)cc2C(c2ccccc2)=NC1OC(=O)C(F)(F)F (configuration not stated)
181 to 183 °C
CCc1nccn1N=Cc1ccc(N(C)C)cc1
120 to 121 °C
